assay: Blood levels in rat following IP administration; format: in vivo; conditions: rat, whole blood, intraperitoneal, 100 mg/kg, NTP-2006 100 mg/kg IP, PBx pretreated; 30 m
REPORTED_PROPERTY: concentration at 30 min (ng/mL)

CCCCNc1cc(C(=O)OCC(=O)N(CC)CC)cc(S(N)(=O)=O)c1Oc1ccccc1 [NTP-2006] = 3.35

###

experiment: Brain levels in rat following IP administration; type: in vivo; details: rat, brain, intraperitoneal, 100 mg/kg, NTP-2006 100 mg/kg IP, PBx pretreated; 15 m
REPORTED_PROPERTY: concentration at 15 min (ng/mL)

CCCCNc1cc(C(=O)OCC(=O)N(CC)CC)cc(S(N)(=O)=O)c1Oc1ccccc1 [NTP-2006] = 2.95

###

target: Na+K+Cl− co-transporter (Rattus norvegicus); construct: endogenous in cells; host or cells: A7r5 cells; test: Na+K+Cl− cotransporter assay, 86Rb uptake in A7r5 cells; type: cell-based; details: 10 minutes at 37° C., read-out: % Inhibition of Control Values
REPORTED_PROPERTY: inhibition at 10 µM (%)

CCCCN(CCCC)c1cc(C(=O)O)cc(S(N)(=O)=O)c1Oc1ccccc1 [NTP-2014] = -4
CCCCNc1cc(C(=O)N(Cc2ccccc2)Cc2ccccc2)cc(S(N)(=O)=O)c1Oc1ccccc1 [NTP-2008] = 17
CCCCNc1cc(C(=O)N(CC)CC)cc(S(N)(=O)=O)c1Oc1ccccc1 [NTP-2007] = 30
CCCCNc1cc(C(=O)N2CCCC2)cc(S(N)(=O)=O)c1Oc1ccccc1 [NTP-2022] = 7
CCCCNc1cc(C(=O)OCC(=O)N(CC)CC)cc(S(N)(=O)=O)c1Oc1ccccc1 [NTP-2006] = 50

###

test system: Male Rj: NMRI mice; assay: Formalin paw test (late phase) in the mouse; assay type: in vivo; details: i.p. 30 minutes before the test; 50 μmol/kg (NTP-2006 23.9, NTP-2024 21.7, NTP-1007 19.3, NTP-2014 21, NTP-2026 23.1 mg/kg)
REPORTED_PROPERTY: Licking Score (15 to 50 minutes post-formalin injection) % Change from Control (%)

CCN(CC)C(=O)c1cc(S(N)(=O)=O)c(Cl)cc1NCc1ccco1 [NTP-1007] = −9
CCCCNc1cc(C(=O)NN2CCOCC2)cc(S(N)(=O)=O)c1Oc1ccccc1 [NTP-2024] = −1
CCCCN(CCCC)c1cc(C(=O)O)cc(S(N)(=O)=O)c1Oc1ccccc1 [NTP-2014] = −38
CCCCNc1cc(C(=O)OCC(=O)N(CC)CC)cc(S(N)(=O)=O)c1Oc1ccccc1 [NTP-2006] = −40

###

Target: Na+K+Cl− co-transporter (Rattus norvegicus, UniProt E9PTX9)
Construct: endogenous in cells; host or cells: A7r5 cells
Sequence (E9PTX9 1-1203): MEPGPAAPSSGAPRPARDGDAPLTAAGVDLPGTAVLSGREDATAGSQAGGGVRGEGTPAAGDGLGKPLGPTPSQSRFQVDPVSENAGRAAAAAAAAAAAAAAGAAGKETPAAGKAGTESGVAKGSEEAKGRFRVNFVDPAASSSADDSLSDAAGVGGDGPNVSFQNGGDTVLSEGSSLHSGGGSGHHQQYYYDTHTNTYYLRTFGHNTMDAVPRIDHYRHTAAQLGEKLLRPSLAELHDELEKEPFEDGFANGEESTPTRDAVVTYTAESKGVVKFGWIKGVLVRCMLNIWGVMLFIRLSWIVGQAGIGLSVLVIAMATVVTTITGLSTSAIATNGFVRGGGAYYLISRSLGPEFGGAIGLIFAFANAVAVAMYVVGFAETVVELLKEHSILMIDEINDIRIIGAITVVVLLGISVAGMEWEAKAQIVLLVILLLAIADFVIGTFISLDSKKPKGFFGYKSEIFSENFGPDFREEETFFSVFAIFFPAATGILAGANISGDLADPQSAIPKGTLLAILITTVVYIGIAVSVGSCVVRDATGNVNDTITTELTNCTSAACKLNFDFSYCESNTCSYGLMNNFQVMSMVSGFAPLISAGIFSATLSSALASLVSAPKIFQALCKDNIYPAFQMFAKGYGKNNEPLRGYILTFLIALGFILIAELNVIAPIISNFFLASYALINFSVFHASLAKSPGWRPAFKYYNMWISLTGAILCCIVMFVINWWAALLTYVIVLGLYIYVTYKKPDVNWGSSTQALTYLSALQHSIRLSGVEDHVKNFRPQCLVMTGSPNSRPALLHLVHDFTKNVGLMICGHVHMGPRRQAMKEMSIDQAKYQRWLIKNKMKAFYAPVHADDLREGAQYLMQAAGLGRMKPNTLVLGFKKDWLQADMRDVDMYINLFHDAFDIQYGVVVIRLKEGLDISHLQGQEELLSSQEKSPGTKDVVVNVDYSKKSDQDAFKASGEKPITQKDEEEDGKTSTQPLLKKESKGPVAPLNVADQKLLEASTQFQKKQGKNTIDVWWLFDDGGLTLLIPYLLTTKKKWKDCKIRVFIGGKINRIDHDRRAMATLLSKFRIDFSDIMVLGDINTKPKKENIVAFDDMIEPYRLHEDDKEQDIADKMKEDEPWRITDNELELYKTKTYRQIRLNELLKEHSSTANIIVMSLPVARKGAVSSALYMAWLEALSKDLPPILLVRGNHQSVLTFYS
Assay: Na+K+Cl− cotransporter assay, 86Rb uptake in A7r5 cells
Format: cell-based
Details: 10 μM, 10 minutes at 37° C.
Description: Na^+K^+Cl^− co-transporter activity was measured in vitro in A7r5 cells by measuring their uptake of ^86Rb (0.2 μCi) in 10 minutes at 37° C. as detected by scintillation counting. See Chassande, et al. (1988) “The Na^+/K^+/Cl^− Cotransport in C6 glioma cells. Properties and role in volume regulation.” Eur. J. Biochem. 171: 425433.
REPORTED_PROPERTY: % Inhibition of Control Values (%)

CCCCNc1cc(C(=O)OCCCCc2ccccc2)cc(S(N)(=O)=O)c1Oc1ccccc1 [NTP-2034] = 21
CCCCNc1cc(C(=O)OCC=C(C)C)cc(S(N)(=O)=O)c1Oc1ccccc1 [NTP-2029] = 12
CCCCNc1cc(C(=O)OCc2ccc(OC)cc2)cc(S(N)(=O)=O)c1Oc1ccccc1 [NTP-2031] = 7
CCCCNc1cc(C(=O)O[C@H](C)c2ccccc2)cc(S(N)(=O)=O)c1Oc1ccccc1 [NTP-2035] = 26
CCCCNc1cc(C(=O)NN2CCCCC2)cc(S(N)(=O)=O)c1Oc1ccccc1 [NTP-2023] = 23
CCCCNc1cc(C(=O)N[C@H](C)c2ccccc2)cc(S(N)(=O)=O)c1Oc1ccccc1 [NTP-2020] = 7
CCCCNc1cc(C(=O)NC)cc(S(N)(=O)=O)c1Oc1ccccc1 [NTP-2016] = −7
CCCCNc1cc(C(=O)O[C@@H](C)c2ccccc2)cc(S(N)(=O)=O)c1Oc1ccccc1 [NTP-2036] = 20
